Entries and their pIC50 values follow.
- protocol_text: Cytotoxicity against human MKN45 cells after 72 hrs by MTT assay
- Format: functional, cell-based
- applied_conditions: MKN-45, 72 h
pIC50: −log10 of the molar value.
quantity: pIC50

>>> print(df.to_string())
                             compound_smiles  reading_qualifier  numeric_result
 0  CN(C)CCn1cnnc1-c1cc(Oc2ccc(NC(=O)N/N=C/c3ccc(O)c(Br)c3)cc2F)ccn1                  =            5.73
 1  CN(C)CCn1cnnc1-c1cc(Oc2ccc(NC(=O)N/N=C/c3c(Cl)cccc3Cl)cc2F)ccn1                  =            6.80
 2  CN(C)CCn1cnnc1-c1cc(Oc2ccc(NC(=O)N/N=C/c3ccccc3)cc2F)ccn1                  =            5.56
 3  CN(C)CCn1cnnc1-c1cc(Oc2ccc(NC(=O)N/N=C/c3cccc(Cl)c3Cl)cc2F)ccn1                  =            7.29
 4  COc1cc(/C=N/NC(=O)Nc2ccc(Oc3ccnc(-c4nncn4CCN(C)C)c3)c(F)c2)cc(OC)c1OC                  =            5.54
 5  COc1ccc(OC)c(/C=N/NC(=O)Nc2ccc(Oc3ccnc(-c4nncn4CCN(C)C)c3)c(F)c2)c1                  =            5.82
 6  CN(C)CCn1cnnc1-c1cc(Oc2ccc(NC(=O)N/N=C/c3ccc(O)c(F)c3)cc2F)ccn1                  =            5.71
 7  CN(C)CCn1cnnc1-c1cc(Oc2ccc(NC(=O)N/N=C/c3ccc(F)cc3Cl)cc2F)ccn1                  =            6.06
 8  COc1ccc(/C=N/NC(=O)Nc2ccc(Oc3ccnc(-c4nncn4CCN(C)C)c3)c(F)c2)cc1O                  =            5.60
 9  CN(C)CCn1cnnc1-c1cc(Oc2ccc(NC(=O)N/N=C/c3cccc(Br)c3)cc2F)ccn1                  =            6.35
10  CN(C)CCn1cnnc1-c1cc(Oc2ccc(NC(=O)N/N=C/c3c[nH]c4ccccc34)cc2F)ccn1                  =            6.10
11  CN(C)CCn1cnnc1-c1cc(Oc2ccc(NC(=O)N/N=C/c3cc(Br)c(O)c(Br)c3)cc2F)ccn1                  =            5.36
12  CN(C)CCn1cnnc1-c1cc(Oc2ccc(NC(=O)N/N=C/c3ccc4c(c3)OCO4)cc2F)ccn1                  =            5.71
13  CN(C)CCn1cnnc1-c1cc(Oc2ccc(NC(=O)N/N=C/c3cc(C(C)(C)C)cc(C(C)(C)C)c3O)cc2F)ccn1                  =            5.48
14  CN(C)CCn1cnnc1-c1cc(Oc2ccc(NC(=O)N/N=C/c3ccc(F)cc3F)cc2F)ccn1                  =            6.09
15  Cn1cnnc1-c1cc(Oc2ccc(NC(=O)N/N=C/c3ccccc3)cc2F)ccn1                  =            5.12
16  CN(C)CCn1cnnc1-c1cc(Oc2ccc(NC(=O)N/N=C/c3ccc(Cl)cc3)cc2F)ccn1                  =            6.24
17  COc1cc(/C=N/NC(=O)Nc2ccc(Oc3ccnc(-c4nncn4CCN(C)C)c3)c(F)c2)ccc1O                  =            5.42
18  COc1ccc(/C=N/NC(=O)Nc2ccc(Oc3ccnc(-c4nncn4CCN(C)C)c3)c(F)c2)c(OC)c1                  =            5.77
19  CN(C)CCn1cnnc1-c1cc(Oc2ccc(NC(=O)N/N=C/c3ccc(O)cc3O)cc2F)ccn1                  =            5.54
20  CN(C)CCn1cnnc1-c1cc(Oc2ccc(NC(=O)N/N=C/c3cccc(O)c3)cc2F)ccn1                  =            5.86
21  CN(C)CCn1cnnc1-c1cc(Oc2ccc(NC(=O)N/N=C/c3ccc(Cl)cc3Cl)cc2F)ccn1                  =            6.12
22  Cn1ncnc1-c1cc(Oc2ccc(NC(=O)N/N=C/c3ccccc3)cc2F)ccn1                  <            4.00
23  COc1ccc(/C=N/NC(=O)Nc2ccc(Oc3ccnc(-c4nncn4CCN(C)C)c3)c(F)c2)c(OC)c1OC                  =            5.69
24  CN(C)CCn1cnnc1-c1cc(Oc2ccc(NC(=O)N/N=C/c3ccc(F)cc3)cc2F)ccn1                  =            5.99
25  Cc1cc(/C=N/NC(=O)Nc2ccc(Oc3ccnc(-c4nncn4CCN(C)C)c3)c(F)c2)cc(C)c1O                  =            5.82
26  CN(C)CCn1cnnc1-c1cc(Oc2ccc(NC(=O)N/N=C/c3ccccc3[N+](=O)[O-])cc2F)ccn1                  =            5.99
27  CN(C)CCn1cnnc1-c1cc(Oc2ccc(NC(=O)N/N=C/c3ccc(O)c(O)c3)cc2F)ccn1                  =            5.49
28  CN(C)CCn1cnnc1-c1cc(Oc2ccc(NC(=O)N/N=C/c3ccc(O)cc3)cc2F)ccn1                  =            6.09
29  CN(C)CCn1cnnc1-c1cc(Oc2ccc(NC(=O)N/N=C/c3c(O)ccc4ccccc34)cc2F)ccn1                  =            5.69
